Source listed as patent US20230056252A1.

- target: T1, biotinylated CD3 epsilon:delta heterodimer protein (Amsbio AMS.CDD-H52WO) (Homo sapiens (Human), UniProt P07766 23-126; P04234 22-105)
- T1 construct: also called CD3 heterodimer
- protocol-summary: BLI (Octet), CD3 on SA sensor, Fab analyte;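 also: biolayer interferometry with biotinylated CD3 epsilon:delta captured on streptavidin sensors, Fab analyte at several concentrations up to 300 nM, 100 s association then 300 s dissociation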
measured-parameter: koff (s⁻¹)
Please give a number only; it is taken to be in s⁻¹.

Using the record for huSP34.5.6 Fab-HF (Fab, V domains shown, also called HC5+LC6) VH: EVQLVESGGGLVQPGGSLRLSCAASGFTFSTYAMNWVRQAPGKGLEWVGRIRSKYNNYATYYADSVKGRFTISRDNSKNTLYLQMNSLRAEDTAVYYCVRHGNFGHSYVSWFAVWGQGTLVTVSS VL: QAVVTQPPSLTVSPGGTVTLTCGSSTGAVTTGHYANWVQQKPGQAPRGLIGGTSNRAPGVPARFSGSLSGGKAALTISGAQPEDEAEYYCALWYSARWVFGGGTKLTVL , report its koff. 0.0746

Using the record for huSP34.2.4 Fab-HF (Fab, V domains shown, also called HC2+LC4) VH: EVQLVESGGGLVQPGGSLRLSCAASGFTFSTYAMNWVRQAPGKGLEWVGRIRSKYNNYATYYAASVKGRFTISRDDSKNSLYLQMNSLKTEDTAMYYCVRHGNFGNSYVSWFAVWGQGTLVTVSS VL: QAVVTQEPSLTVSPGGTVTLTCGSSTGAVTTSHYANWVQQKPGQAPRGLIGGTSKRAPWTPARFSGSLLGGKAALTLSGAQPEDEAEYYCALWYSALWVFGGGTKLTVL , report its koff. 0.0335

Using the record for huSP34.8.6 Fab-HF (Fab, V domains shown, also called HC8+LC6) VH: EVQLVESGGGLVQPGGSLRLSCAASGFTFSDYAMNWVRQAPGKGLEWVGRTRSKYNNYATYYAASVKGRFTISRDDSKNSLYLQMNSLKTEDTAVYYCVRHGNFGHSYVSWFAVWGQGTLVTVSS VL: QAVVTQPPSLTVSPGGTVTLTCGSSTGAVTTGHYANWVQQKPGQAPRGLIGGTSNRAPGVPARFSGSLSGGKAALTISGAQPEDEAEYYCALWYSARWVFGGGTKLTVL , report its koff. 0.138
